system: human dermal papilla cells; test: Promotion of proliferation of human dermal papilla cells (CellTiter-Glo Luminescent cell viability assay); assay type: cell-based; details: human dermal papilla cells (ScienCell, 2499); drug 0 to 30 μM; 48 hours; CellTiter-Glo luminescence; compared to DMSO-treated control group
ASSAY_METRIC: Maximum DP cell proliferation (%)
Numbers only, in %.

Record Maximum DP cell proliferation (%) per entry; entries follow.
1. Nc1n[nH]c2nc(Nc3cccc4ccccc34)c(F)cc12
2. Fc1cc2cn[nH]c2nc1Nc1cccc2c1CCC2
3. Nc1n[nH]c2nc(Nc3cccc4c3CCC4)nc(Cl)c12
4. Nc1n[nH]c2nc(Nc3cccc4c3CC(=O)N4)c(F)cc12
5. O=C(Nc1n[nH]c2nc(Nc3cccc4c3CCC4)c(F)cc12)C1CCCC1
6. Cc1c(Nc2cccc3c2CCC3)nc2[nH]nc(N)c2c1C

Reply:
1. 8
2. 15
3. 5.9
4. 4.4
5. 0.4
6. 13

Record Maximum DP cell proliferation (%) per entry; entries follow.
1. CC(=O)Nc1n[nH]c2nc(Nc3cccc4c3CCC4)c(F)cc12
2. Cc1ccc(Nc2nc3[nH]nc(N)c3cc2F)cc1C
3. Nc1n[nH]c2nc(CNc3cccc4c3CCC4)c(F)cc12
4. O/N=N\c1n[nH]c2nc(Nc3cccc4c3CCC4)c(F)cc12
5. Nc1n[nH]c2nc(Nc3ccc(C(F)(F)F)c(F)c3)c(F)cc12
6. Nc1n[nH]c2nc(Nc3cc(C(F)(F)F)ccc3F)c(F)cc12

Reply:
8
7.8
6.8
5.3
6.8
4.5

meta.source: patent US12583852B2
